# CONDITION DETAILS: 293.15 K; 101.33 kPa; Liquid; Sing-around technique in a fixed-path interferometer
The following compounds are shown together with reported speed of sound values.

SMILES CODE	speed of sound / m/s
CCCCCCCCCCO	1397.1
CCCCO	1256.2
CCOCCOCCOCC	1259.4
CO	1118

====

# CONDITION DETAILS: 303.15 K; 101.33 kPa; Liquid; Sing-around technique in a fixed-path interferometer
Numbers after ± are expanded uncertainties.
RECORDED METRIC: speed of sound

SMILES CODE	RECORDED METRIC	RESULT
CCCCO	speed of sound	1223.8 ± 0.7 m/s
CCOCCOCCOCC	speed of sound	1221.8 ± 1.2 m/s
CO	speed of sound	1086.6 ± 0.6 m/s
CCCCCCCCCCO	speed of sound	1364.1 ± 1.2 m/s

====

# CONDITION DETAILS: 303.15 K; 101.33 kPa; Liquid; Vibrating tube method
Each entry below lists one item and its recorded mass density value.

MOLECULE	mass density, kg/m3
CCOCCOCCOCC [diethylene glycol diethyl ether]	897.22
CCCCCCCCCCO [decan-1-ol]	823.15
CO [methanol]	782.44
CCCCO [butan-1-ol]	802.22

====

# CONDITION DETAILS: 298.15 K; 101.33 kPa; Liquid; Vibrating tube method

COMPOUND	mass density (kg/m3)
CCOCCOCCOCC [diethylene glycol diethyl ether]	902.88
CO [methanol]	787.2
CCCCCCCCCCO [decan-1-ol]	826.95
CCCCO [butan-1-ol]	806.47

====

# CONDITION DETAILS: 298.15 K; 101.33 kPa; Liquid; Sing-around technique in a fixed-path interferometer
Numbers after ± are expanded uncertainties.
Reported speed of sound values are given for each entry in this list.

SMILES CODE	speed of sound
CO	1101.4 ± 0.6 m/s
CCCCO	1239.6 ± 0.7 m/s
CCOCCOCCOCC	1239.9 ± 1.2 m/s
CCCCCCCCCCO	1380.3 ± 1.2 m/s

====

Items are presented alongside their recorded mass density.
# CONDITION DETAILS: 293.15 K; 101.33 kPa; Liquid; Vibrating tube method
RECORDED METRIC: mass density (kg/m3)

COMPOUND	UNIT ABBREV	QUANTITATIVE READOUT
CCCCO [butan-1-ol]	kg/m3	809.89
CCCCCCCCCCO [decan-1-ol]	kg/m3	829.95
CO [methanol]	kg/m3	791.55
CCOCCOCCOCC [diethylene glycol diethyl ether]	kg/m3	906.73
